Sourced from patent US20220235134A1

ASSAYED_TARGET: Recombinant cyno B7-H3 (cyno)
PROCEDURE_TEXT: SPR (such as Biacore T200), against cyno B7-H3
MEASURED_QUANTITY: kon (M⁻¹ s⁻¹)

>>> test_result("SCT-Da148 (antibody, V domains shown) VH: EVQLQQSGAELVKPGASVKLSCTASGVNIKDTYIHWVKQRPEQGLEWIGRIDPANGNRKYDPKFQGKATITADSSSNTAYLQLSSLTSEDTAVYYCARDGYYAPGYWGQGTTLTVSS VL: DIVMTQSQKFMSTSVGDRVSVTCKASQNVGTDVAWYQQKPGQSPKLLIYSASYRFSGVPDRFTGSGSGTDFSLAISNVQSEDLAEYFCQQYNSYPYTFGGGAKLEIK")
731000
